# MEASUREMENT DESCRIPTION: P-glycoprotein substrates identified in KB-8-5-11 adenocarcinoma cell line, qHTS therapeutic library screen (AID 1346987); note: nearly all actives have a fitted effect of over 65% in size
# CONDITION DESCRIPTION: KB-8-5-11 (P-gp overexpressing) viability, CellTiter-Glo, 72 h; at 44.5 µM (top of the series); series mostly up to 44.5 µM
Inconclusive results are not listed. Active and inactive are the calls of the source. Calls come from the whole dose curve; as a rule, active = well fitted inhibition curve with a large enough effect; inconclusive = small, poorly fitted or top-dose-only effect; inactive = flat fitted curve, though single readings scatter.
RECORDED METRIC: outcome

Please review the following examples before continuing.
[
  {
    "MOLECULE": "CCCCC1(COC(=O)CCC(=O)O)C(=O)N(c2ccccc2)N(c2ccccc2)C1=O",
    "outcome": "inactive"
  },
  {
    "MOLECULE": "C/C=C1\\[C@H]2C=C(C)C[C@]1(N)c1ccc(=O)[nH]c1C2",
    "outcome": "inactive"
  },
  {
    "MOLECULE": "COc1ccccc1OCC(O)CO (stereo not drawn)",
    "outcome": "inactive"
  },
  {
    "MOLECULE": "CC(=O)N[C@@H](Cc1ccc(O)cc1)C(=O)O",
    "outcome": "inactive"
  },
  {
    "MOLECULE": "O=C(O)c1ccc[n+]([O-])c1",
    "outcome": "inactive"
  },
  {
    "MOLECULE": "C[n+]1ccccc1/C=N/O",
    "outcome": "inactive"
  }
]

molecule NS(=O)(=O)c1cc(C2(O)NC(=O)c3ccccc32)ccc1Cl (stereo not drawn) , outcome observed: inactive

Entry "Cc1c(C(=O)NCCO)[n+](=O)c2ccccc2n1[O-]" ; outcome = inactive

Summary for this molecule, "NC(N)=NS(=O)(=O)c1ccc(N)cc1" : outcome is inactive

Lookup result for "CCCOC(=O)c1ccc(N)cc1" ; measured outcome: inactive

Value of outcome reported for the molecule "OCCN1C[C@H](O)[C@@H](O)[C@H](O)[C@H]1CO" is inactive

Short answer for "CCN(CC)S(=O)(=O)c1ccc(C(=O)O)cc1" : outcome was inactive

Lab book: outcome of "CC(=O)N[C@@H](CC(C)C)C(=O)O" noted as inactive
